pIC50: −log10 of the molar value.
Vascular endothelial growth factor receptor 2 (Homo sapiens, UniProt P35968) pIC50, compiled from various sources.
Sequence (P35968 whole entry): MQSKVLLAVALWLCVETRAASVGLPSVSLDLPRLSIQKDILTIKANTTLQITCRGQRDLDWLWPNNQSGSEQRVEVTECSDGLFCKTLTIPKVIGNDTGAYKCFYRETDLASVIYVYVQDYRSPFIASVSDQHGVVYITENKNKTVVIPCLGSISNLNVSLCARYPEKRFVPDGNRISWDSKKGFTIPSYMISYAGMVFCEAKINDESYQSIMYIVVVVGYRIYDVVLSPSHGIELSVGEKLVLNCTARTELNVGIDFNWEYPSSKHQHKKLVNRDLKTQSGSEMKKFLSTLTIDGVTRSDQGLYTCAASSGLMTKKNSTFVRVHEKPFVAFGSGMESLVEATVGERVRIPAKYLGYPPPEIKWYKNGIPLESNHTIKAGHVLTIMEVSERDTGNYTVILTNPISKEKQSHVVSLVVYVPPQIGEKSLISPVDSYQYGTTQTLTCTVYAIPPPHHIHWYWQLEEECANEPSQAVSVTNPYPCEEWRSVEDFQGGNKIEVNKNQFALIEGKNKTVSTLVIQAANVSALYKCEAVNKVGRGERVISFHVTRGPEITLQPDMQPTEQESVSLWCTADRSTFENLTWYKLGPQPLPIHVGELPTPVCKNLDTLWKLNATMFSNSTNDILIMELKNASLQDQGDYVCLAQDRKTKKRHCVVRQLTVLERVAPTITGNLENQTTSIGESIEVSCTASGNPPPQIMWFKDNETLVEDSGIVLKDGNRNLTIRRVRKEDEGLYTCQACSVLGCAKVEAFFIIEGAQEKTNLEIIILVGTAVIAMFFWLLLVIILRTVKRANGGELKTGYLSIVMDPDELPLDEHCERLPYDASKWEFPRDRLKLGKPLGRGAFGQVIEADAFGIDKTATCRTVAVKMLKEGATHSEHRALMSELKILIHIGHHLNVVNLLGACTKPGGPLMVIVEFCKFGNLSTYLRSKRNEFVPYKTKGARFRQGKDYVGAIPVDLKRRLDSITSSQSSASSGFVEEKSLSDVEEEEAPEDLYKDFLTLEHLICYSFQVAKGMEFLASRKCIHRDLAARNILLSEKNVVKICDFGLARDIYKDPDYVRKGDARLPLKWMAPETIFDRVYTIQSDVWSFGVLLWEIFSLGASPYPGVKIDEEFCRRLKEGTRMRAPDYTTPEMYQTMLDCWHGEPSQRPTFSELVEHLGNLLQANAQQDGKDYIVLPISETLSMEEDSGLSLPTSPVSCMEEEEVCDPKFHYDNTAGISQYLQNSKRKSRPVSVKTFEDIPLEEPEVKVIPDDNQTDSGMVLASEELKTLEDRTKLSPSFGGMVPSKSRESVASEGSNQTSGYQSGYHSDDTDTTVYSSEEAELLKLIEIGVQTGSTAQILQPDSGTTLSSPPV
Please note: label 1 applies when pIC50 is 6 or greater, and label 0 applies otherwise.

The examples below pair each entry with its known result.
CC(C)(C)c1cc(NC(=O)Nc2ccc(-c3cc(-c4ccc(OCCN5CCOCC5)cc4)[nH]n3)cc2)no1
label 1
CNc1nccc(-c2cccnc2Oc2ccc(Nc3nc4ccccc4s3)c3ccccc23)n1
label 1
c1cnn2ncc(-c3ccnc(NC4CC4)n3)c2c1
label 0
N#CCCCOc1cc2nccc(Oc3ccc(NC(=O)C4(C(=O)Nc5ccc(F)cc5)CC4)cc3F)c2c2c1OCCO2
label 1
COc1cc2nccc(Oc3cc(Cl)c(NC(=O)C4(C(=O)Nc5ccc(F)cc5)CC4)cc3F)c2c2c1OCCO2
label 0

Now turn to the next molecule.
Form field: pIC50 at least 6? Entry: CNc1ncnc(-c2cccnc2Oc2ccc(F)c(C(=O)Nc3cc(C(F)(F)F)ccc3N(C)CCCN(C)C)c2)n1
label 0
